System Tested: T1, human recombinant soluble CD73 protein (human, UniProt P21589 27-547)
T1 construct: also called huCD73; rhCD73
T1 sequence: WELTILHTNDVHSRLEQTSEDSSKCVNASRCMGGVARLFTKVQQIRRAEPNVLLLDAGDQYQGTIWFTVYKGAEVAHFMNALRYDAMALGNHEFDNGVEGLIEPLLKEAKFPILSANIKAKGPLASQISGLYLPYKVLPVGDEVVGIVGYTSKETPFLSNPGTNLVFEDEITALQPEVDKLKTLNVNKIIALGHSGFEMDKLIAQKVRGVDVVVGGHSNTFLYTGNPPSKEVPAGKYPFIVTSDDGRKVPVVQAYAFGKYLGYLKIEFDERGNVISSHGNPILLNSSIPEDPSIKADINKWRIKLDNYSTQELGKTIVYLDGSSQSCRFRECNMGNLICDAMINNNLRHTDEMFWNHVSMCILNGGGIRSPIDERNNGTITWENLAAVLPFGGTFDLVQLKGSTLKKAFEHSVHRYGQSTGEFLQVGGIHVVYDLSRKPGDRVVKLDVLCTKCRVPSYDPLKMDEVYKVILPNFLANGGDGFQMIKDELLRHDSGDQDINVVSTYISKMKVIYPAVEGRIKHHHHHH
Assay Summary: SPR, Ab captured on Protein A, soluble huCD73 as analyte
Listing of entries alongside the reported kon.
Could you give me the number in M⁻¹ s⁻¹? Just the number is fine.

Take a look at these entries with their results.
H4L0 (antibody, human IgG1, V domains shown, L0 VL limits counted by alignment with L1) VH: QIQLVQSGAEVKKPGASVKVSCKASGYAFASYNMYWVRQAPGQSLEWIGYIDPYNGGSSYNLTFKGKATLTVDKSASTAYMELSSLRSEDTAVYYCARGYGNYKAWFAYWGQGTLVTVSS VL: DIQMTQSPSSLSASVGDRVTITCKASQSVSNDVAWYQQKPGKAPKLLIYYASTRYTGVPSRFSGSGSGTDFTFTISSLQPEDIATYYCQQDYSSLTFGQGTKLEIK
158000
H1L0 (antibody, human IgG1, V domains shown, L0 VL limits counted by alignment with L1) VH: QIQLVQSGAEVKKPGASVKVSCKASGYTFTSYNMYWVRQAPGQRLEWMGYIDPYNGGSSYNLTFKGRVTITRDKSASTAYMELSSLRSEDTAVYYCARGYGNYKAWFAYWGQGTLVTVSS VL: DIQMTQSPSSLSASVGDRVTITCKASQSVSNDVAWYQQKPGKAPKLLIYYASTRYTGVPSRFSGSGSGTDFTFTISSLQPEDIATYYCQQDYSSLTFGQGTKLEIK
103000

Field kon (entry H4L4 (antibody, human IgG1, V domains shown) VH: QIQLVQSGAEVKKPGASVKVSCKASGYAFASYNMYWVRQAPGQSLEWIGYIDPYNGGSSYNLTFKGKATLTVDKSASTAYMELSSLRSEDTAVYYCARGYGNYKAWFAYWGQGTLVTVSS VL: DVQMTQSPSSLSASVGDRVTITCKASQSVSNDVAWYQQKPGKAPKLLIYYASTRYTGVPDRFSGSGYGTDFTFTISSLQPEDIATYFCQQDYSSLTFGQGTKLEIK ) reads 60100
